Target: An. gambiae D7L3 (Anopheles gambiae, UniProt A0A1S4HE90)
Sequence (A0A1S4HE90 27-354 limits assumed): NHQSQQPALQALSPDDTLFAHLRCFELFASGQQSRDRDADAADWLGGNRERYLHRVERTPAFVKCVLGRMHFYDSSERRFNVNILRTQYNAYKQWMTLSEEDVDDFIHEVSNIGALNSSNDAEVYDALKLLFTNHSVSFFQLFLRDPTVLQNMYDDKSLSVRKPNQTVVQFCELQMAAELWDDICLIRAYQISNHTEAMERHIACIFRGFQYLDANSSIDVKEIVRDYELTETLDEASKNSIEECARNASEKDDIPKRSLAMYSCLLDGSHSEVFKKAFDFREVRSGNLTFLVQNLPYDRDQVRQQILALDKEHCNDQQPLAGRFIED
Experiment: biochemical
Format: binding
Property name: Kd (nM)
Numeric answer only, unit nM assumed.

Before answering, review these 2 worked examples.
Molecule | Property name | Result
NC[C@H](O)c1ccc(O)c(O)c1 [norepinephrine, L(+)-norepinephrine] | Kd | 2530
NCCc1c[nH]c2ccc(O)cc12 [serotonin] | Kd | 22

Proceeding to the next molecule to report its Kd.
Field request: Kd | item: NCCc1c[nH]cn1 [histamine]
1530

---

Biological target: AnAtr-D7L1 (Anopheles atroparvus)
Sequence (A0A182IRF8 24-316): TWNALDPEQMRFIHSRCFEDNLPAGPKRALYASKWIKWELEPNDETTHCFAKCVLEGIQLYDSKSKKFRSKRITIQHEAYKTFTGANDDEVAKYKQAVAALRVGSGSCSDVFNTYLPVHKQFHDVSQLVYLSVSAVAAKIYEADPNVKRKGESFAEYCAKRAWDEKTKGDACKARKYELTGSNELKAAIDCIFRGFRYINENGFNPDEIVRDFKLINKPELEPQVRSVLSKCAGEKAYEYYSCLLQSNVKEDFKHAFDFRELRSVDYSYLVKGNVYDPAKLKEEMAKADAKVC
Assay: ITC ligand binding to recombinant AnAtr-D7L1
Conditions: ITC, 30°C, 4 μM protein, 40 μM ligand

Compound | binding observed by ITC (in words)
CCCCC[C@H](O)/C=C/C=C\C/C=C\C/C=C\CCCC(=O)O [15-HETE] | No binding was detected
CCCCC/C=C\C[C@@H](O)/C=C/C=C/C=C\[C@@H](O)CCCC(=O)O [LTB4] | No binding was detected
CCCCC[C@H](O)/C=C/[C@@H]1[C@@H](C/C=C\CCCC(=O)O)[C@@H](O)C[C@H]1O [PGF2α] | No binding was detected

---

Property: Kd; scope: individual molecules
Molecular target: AnDar-D7L2 (Anopheles darlingi)
Sequence (B6DDQ8 21-317 limits assumed): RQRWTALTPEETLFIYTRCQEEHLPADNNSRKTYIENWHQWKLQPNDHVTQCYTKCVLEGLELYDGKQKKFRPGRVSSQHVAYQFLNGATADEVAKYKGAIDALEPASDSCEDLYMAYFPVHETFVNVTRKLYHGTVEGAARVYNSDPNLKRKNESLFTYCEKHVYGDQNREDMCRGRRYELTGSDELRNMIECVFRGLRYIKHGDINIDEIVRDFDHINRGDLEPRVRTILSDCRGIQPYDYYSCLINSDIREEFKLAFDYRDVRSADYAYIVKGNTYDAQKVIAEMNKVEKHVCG

Smiles notation | Kd
NCCc1c[nH]c2ccccc12 | 518 nM

Okay, now this molecule:
Entry NCCc1c[nH]c2ccc(O)cc12 , system AnDar-D7L2 (Anopheles darlingi): what Kd was measured?
17 nM

---

Target: UniProt B6DDQ8
Assay: biochemical
Format: binding
Property name: binding observed by ITC (in words)

Here are 5 compounds together with their reported answers.
Compound | binding observed by ITC (in words)
CCCCC/C=C\C\C=C/C=C/C=C/[C@@H](SC[C@H](N)C(=O)NCC(=O)O)[C@@H](O)CCCC(=O)O | high affinity
NCCc1c[nH]cn1 | No detectable binding
CCCCC/C=C\C\C=C/C=C/C=C/[C@@H](SC[C@H](NC(=O)CC[C@H](N)C(=O)O)C(=O)NCC(=O)O)[C@@H](O)CCCC(=O)O | high affinity
CNC[C@H](O)c1ccc(O)c(O)c1 [epinephrine] | No detectable binding
CCCCC[C@H](O)/C=C/[C@@H]1[C@@H](C/C=C\CCCC(=O)O)[C@H]2CO[C@@H]1C2 | high affinity

Okay, next one:
Any idea what binding observed by ITC (in words) was measured for CCCCC/C=C\C\C=C/C=C/C=C/[C@@H](SC[C@H](N)C(=O)O)[C@@H](O)CCCC(=O)O ?
high affinity
